Value source: patent US20260317324A1

Test target: BRAF G469A (Homo sapiens, UniProt P15056, G469A)
Construct: Horizon Discovery (HCT-116 BRAF−/− cells); host or cells: HCT-116 BRAF−/− cells, clone 34, lentiviral transduction
Sequence (P15056 whole entry G469A): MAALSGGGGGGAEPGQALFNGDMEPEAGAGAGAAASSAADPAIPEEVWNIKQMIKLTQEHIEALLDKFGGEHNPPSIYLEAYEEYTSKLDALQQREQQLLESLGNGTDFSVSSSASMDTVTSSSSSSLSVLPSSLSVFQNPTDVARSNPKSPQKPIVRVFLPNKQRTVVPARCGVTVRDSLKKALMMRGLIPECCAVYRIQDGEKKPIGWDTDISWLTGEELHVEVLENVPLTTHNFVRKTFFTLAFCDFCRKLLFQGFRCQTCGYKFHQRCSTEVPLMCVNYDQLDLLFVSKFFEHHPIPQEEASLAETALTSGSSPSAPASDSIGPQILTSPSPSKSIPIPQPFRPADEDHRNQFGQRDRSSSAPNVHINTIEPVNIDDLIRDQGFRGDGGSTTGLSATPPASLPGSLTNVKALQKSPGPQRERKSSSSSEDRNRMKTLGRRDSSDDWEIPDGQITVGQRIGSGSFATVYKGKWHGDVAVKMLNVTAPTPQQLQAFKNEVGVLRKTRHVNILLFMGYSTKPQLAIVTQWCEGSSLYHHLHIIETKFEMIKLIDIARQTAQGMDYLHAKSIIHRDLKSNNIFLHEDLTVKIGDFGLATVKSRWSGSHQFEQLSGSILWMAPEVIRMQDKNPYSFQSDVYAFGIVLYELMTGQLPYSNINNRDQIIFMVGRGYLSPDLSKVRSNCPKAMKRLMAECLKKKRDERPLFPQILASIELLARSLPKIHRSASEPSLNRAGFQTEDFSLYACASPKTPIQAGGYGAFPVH
Run description: BRAF HiBiT degradation assay, C-terminal HiBiT-tagged BRAF G469A overexpressed in HCT-116 BRAF−/− cells (clone 34), Nano-Glo HiBiT Lytic assay
Format: cell-based
Condition context: BRAF G469A (Class 2), HCT-116 BRAF−/− cells; DC50 at 50% degradation
Experimental endpoint: DC50

Molecule | DC50
O=C1CC[C@H](c2ccc(N3CCC(CN4CCN(c5ccc(-n6cc(-c7cc(Cl)cc(NS(=O)(=O)N8CCCC8)c7F)c(-c7ccncc7)n6)c(F)c5)CC4)CC3)cc2)C(=O)N1 | 10 to 50 nM
O=C1CCC(c2ccc(N3CCC(CN4CCN(c5ccc(-n6cc(-c7cc(Cl)cc(NS(=O)(=O)N8CCCC8)c7F)c(-c7ccncc7)n6)cc5)CC4)CC3)cc2F)C(=O)N1 (racemic) | 10 to 50 nM
O=C1CC[C@H](c2ccc(N3CCC(CN4CCN(c5ccc(-n6cc(-c7cc(Cl)cc(NS(=O)(=O)N8CC[C@@H](F)C8)c7F)c(-c7ccncc7)n6)nc5)CC4)CC3)cc2)C(=O)N1 | < 10 nM
O=C1CC[C@@H](c2ccc(N3CCC(CN4CCN(c5ccc(-n6cc(-c7cc(Cl)cc(NS(=O)(=O)N8CCCC8)c7F)c(-c7ccncc7)n6)nc5)CC4)CC3)nc2)C(=O)N1 | 10 to 50 nM
CCCS(=O)(=O)Nc1cccc(-c2nc(C3CCC4(CC3)CCN(CC3CCN(c5ccc6c(c5)CN(C5CCC(=O)NC5=O)C6=O)CC3)CC4)sc2-c2ccnc(N)n2)c1F (racemic) | > 500 nM

Incoming: DC50 for `O=C1CC[C@H](c2ccc(N3CCC(CN4CCN(c5ccc(-n6cc(-c7cc(Cl)cc(NS(=O)(=O)N8CCCC8)c7F)c(-c7ccncc7)n6)nc5)CC4)CC3)nc2)C(=O)N1` ?
Outgoing: < 10 nM

Incoming: DC50 for `CCN(C)S(=O)(=O)Nc1cc(Cl)cc(-c2cn(-c3ccc(N4CCN(CC5CCN(c6ccc(N7CCC(=O)NC7=O)cn6)CC5)CC4)cn3)nc2-c2ccncc2)c1F` ?
Outgoing: 50 to 500 nM
